Reference for the values: PubChem BioAssay AID1996

Overview of reported solubility kinetic across a group of compounds:
TEST_CONTEXT: buffer; pH 7.4; 200.0 µM

QUERY: Fill in the blank: the reported solubility kinetic of Cc1cc(NC(=O)c2ccco2)sc1C is ____.
RESULT: > 33.2 µg/mL

QUERY: Find the recorded solubility kinetic belonging to CCOC(=O)N1CCN(CCC(=O)Nc2cc(C)ccc2C)CC1 and report it.
RESULT: > 50 µg/mL

QUERY: GET /values?readout=solubility kinetic&item= COc1cc(NC(=O)c2ccccc2)c(OC)cc1NC(=O)Cc1ccc(C)cc1
RESULT: < 0.4 µg/mL

----------
Readings of solubility kinetic for the listed compounds
TEST_CONTEXT: buffer; pH 7.4; 200.0 µM

Consider the reported solubility kinetic for these compounds:
[
  {
    "COMPOUND": "Nc1nc(-c2nonc2N)no1",
    "OBSERVED_MEASUREMENT": "> 25.2 µg/mL"
  },
  {
    "COMPOUND": "COCCNC(=O)CN1C(=O)NC2(CCCCCC2)C1=O",
    "OBSERVED_MEASUREMENT": "> 44.6 µg/mL"
  },
  {
    "COMPOUND": "CCOC(=O)N1CCN(C(=O)c2ccc(OCC)cc2)CC1",
    "OBSERVED_MEASUREMENT": "> 46 µg/mL"
  },
  {
    "COMPOUND": "Cc1cccc(C(=O)O/N=C(\\N)c2ccccn2)c1",
    "OBSERVED_MEASUREMENT": "> 38.3 µg/mL"
  },
  {
    "COMPOUND": "COc1ccc(C(=O)NCc2c(C)oc(C)c2C(=O)O)cc1",
    "OBSERVED_MEASUREMENT": "> 45.5 µg/mL"
  }
]

QUERY: Look up solubility kinetic for this compound: CCOc1ccc(C(=O)OCC(=O)NC2CCCC2)cc1OCC
RESULT: 17.7 µg/mL

QUERY: # query: solubility kinetic of entry O=[N+]([O-])c1cccc2c1ccc1ncccc12
RESULT: 1.3 µg/mL

QUERY: Any idea what its solubility kinetic is? The compound is COc1cc(/C=C/c2nc3ccccc3c(=O)[nH]2)ccc1OC(F)F
RESULT: 1.9 µg/mL

QUERY: I have this compound here, Cc1cccc(OCCNC(=O)CCc2ccccc2)c1 , and I need its recorded solubility kinetic.
RESULT: 34.4 µg/mL

QUERY: // query solubility kinetic value for entry CN(C)/C=C(\C#N)S(=O)(=O)c1ccccc1
RESULT: > 35.4 µg/mL

QUERY: Fill in the blank: the reported solubility kinetic of CCOC(=O)c1ccc(NC(=O)C2COc3ccccc3O2)cc1 (stereo not given) is ____.
RESULT: 2.1 µg/mL

QUERY: Form field: reported solubility kinetic of C=Cc1ccc(N=Cc2c(O)ccc3ccccc23)cc1
RESULT: 0.9 µg/mL

QUERY: State the recorded solubility kinetic for this entry: Cc1c(/C=N/O)c2ccccn2c1C=O
RESULT: > 30.3 µg/mL

QUERY: Need solubility kinetic of COCCSc1ccccc1C(=O)NCCc1ccccc1 , thanks.
RESULT: > 47.3 µg/mL

QUERY: What value of solubility kinetic has been recorded for this entry: c1ccc(CCCN2CCN(c3ccccc3)CC2)cc1
RESULT: 24.3 µg/mL

QUERY: GET /values?readout=solubility kinetic&item= O=C(NC1CCS(=O)(=O)C1)c1ccc(Br)s1 (stereo not given)
RESULT: > 48.6 µg/mL

QUERY: Item under review: CCN(CC)C(=S)SCC(=O)Nc1ncc2c(n1)CCCC2=O . Reported solubility kinetic?
RESULT: 15.5 µg/mL

QUERY: Data request, read-out solubility kinetic, for CCC1CCCCN1C(=O)CNCC1CCCO1.Cl (stereo not given)
RESULT: 27.4 µg/mL

QUERY: Can you share its solubility kinetic? I mean this compound: N/C(=N\OC(=O)C1CCCCC1)c1ccc(Cl)cc1
RESULT: 8.1 µg/mL

QUERY: Could you tell me which solubility kinetic is on file for COc1cccc(S(=O)(=O)NCc2ccc(C(=O)N3CCN(C)CC3)cc2)c1 ?
RESULT: > 60.5 µg/mL
